Target: T1, hFc tagged human LAG3 ECD recombinant protein (human, UniProt P18627 23-450)
T1 construct: range 23-450; also called biotin labelled hFc tagged human LAG3 ECD; not shown: human IgG Fc tag
T1 sequence (looked up): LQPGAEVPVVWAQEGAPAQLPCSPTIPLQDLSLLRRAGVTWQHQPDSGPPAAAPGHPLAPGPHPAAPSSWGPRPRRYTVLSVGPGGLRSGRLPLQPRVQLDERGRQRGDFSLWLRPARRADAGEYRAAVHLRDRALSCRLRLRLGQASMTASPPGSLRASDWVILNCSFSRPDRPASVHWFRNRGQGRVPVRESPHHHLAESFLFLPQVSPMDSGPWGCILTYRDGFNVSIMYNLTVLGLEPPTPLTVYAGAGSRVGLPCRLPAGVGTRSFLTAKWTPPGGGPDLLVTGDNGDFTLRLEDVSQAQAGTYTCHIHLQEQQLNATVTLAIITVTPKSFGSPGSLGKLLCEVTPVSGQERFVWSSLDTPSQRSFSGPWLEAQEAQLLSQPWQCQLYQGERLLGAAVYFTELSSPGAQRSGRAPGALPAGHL
Test: competitive FACS: hFc-LAG3 ECD binding to Raji cells (MHC II)
TOP blocking (%) values, listed per item
Kindly provide the numeric value in % only, without the unit symbol.

Solved entries:
Antibody 048 (antibody, V domains shown, mouse hybridoma antibody) VH: EFQVQQSGPELVKPGASVKISCKASGYSFSDYNMNWLKQSTGKSLEWIGLVDPIYGTIRYNQKFKGKATLTVDQSSSTAYMQLNSLTSEDSAVYYCALITTSVRYFDYWGQGTTLTVSS VL: DVLMTQTPLSLPVSLGDQASISCRSSQNIVHTDGNTYLEWYLQKPGQSPKLLIYKVSNRFSGVPDRFSGSGSGTDFTLKISRVEAEDLGVYYCFQGSHVPPTFGGGTKLEIK	92.9
Antibody 039 (antibody, V domains shown, mouse hybridoma antibody) VH: EFQLQQSGPELVKPGASVKISCKASGYSFTDYNLNWVRQSNGKSLEWIGLVDPIYGTIRYNQNFKDKATLTVDQSSSTAYMQLNSLTSEDSAVYYCASIMTAVRYFDHWGQGTTLTVSS VL: DVLMTQTPLFLPVSLGDQASISCRSSLNIVHSDGNTYLEWYLQKPGQSPKLLIYKVSNRFSGVPDRFSGSGSGTDFTLKISGVEAEDLGVYYCFQGSHVPPTFGGGTKLEIK	94.9
Antibody 027 (antibody, V domains shown, mouse hybridoma antibody) VH: EVKILQSGGGLVQPGGSLKLSCAASGIDFSRYWMSWVRRTPGKGLEWIGEINPDSSTINYAPSLKDKFIISRDNAKNTLYLQMSKVRSEDTALYYCARLGIIPTYHYGSSGYYYAMDYWGQGTSVTVSS VL: DVLMTQTPLSLPVSLGDRASISCRSSQTIVHGNGHTSLEWYLQKPGQSPQLLIYKVSNRFSGVPDRFSASGSGTDFTLTISRVEAEDLGVYYCFQVSHVPYTFGGGTKLEIK	97.2
Antibody 035 (antibody, V domains shown, mouse hybridoma antibody) VH: QVQLQQSGAELARPGASVKLSCKASGYSFTSYGINWVKQRTGQGLEWIGEIYPRSGNTYYNEKFKDKATLTADKSSSTAYMELRSLTSEDSAVYFCARGGTYDGYYYAMDFWGQGTSVTVSS VL: DIVLTQSPASLAVSLGQRATISCRASESVDNFGSSFLHWYQQKPGQAPKLLIYRASNLESGIPARFSGSGSRTDFTLTINPVETDDVATYYCQQVNKDPRTFGGGTKLEIK	99.2

Turning to the following binder.
TOP blocking (%) in this record for Antibody 057 (antibody, V domains shown, mouse hybridoma antibody) VH: QVQLQQSGAELARPGASVKLSCKASGFSFTSYGINWVKQRTGQGLEWIGEIYPRSGNTYYNEKLKGEATLTADRSSSTAYMELRSLTSEDSAVYFCARGGTYDGYYYAMDYWGQGTSVTVSS VL: NIVLTQSPASLAVSLGQRATISCRASESVDNFGSSFMHWYQQKPGQAPKLLIYRASNLESGIPARFGGSGSGTDFTLTIDPVETDDVATYYCQQVNKDPRTFGGGTKLEIK : 87.6
